We begin with a simple list: items and their reported IC50.
System: 885724-159-R-J1-PDC complex spheroid viability;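 further: spheroids exposed to agents for seven days before readout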
test details: Anticancer human tumor 885724-159-R-J1-PDC patient-derived pancreatic adenocarcinoma cell line growth inhibition [GQUAD]
stated conditions: curve of first compound; second compound 1 µM

Previously resolved entries follow.
# compound, result
measured = [
    ("CC[C@@]1(O)C(=O)OCc2c1cc1n(c2=O)Cc2cc3c(CN(C)C)c(O)ccc3nc2-1 + Cc1[nH]c2ccc(F)cc2c1-c1nc2c3cccnc3c3ncccc3c2[nH]1", "> 0.316 µM"),
    ("Nc1ccn(C2OC(CO)C(O)C2(F)F)c(=O)n1 (stereo not given) + CN(C)c1ccc(Nc2c3ccc(NC(=O)CCN4CCCC4)cc3nc3cc(NC(=O)CCN4CCCC4)ccc23)cc1", "> 10 µM"),
    ("CC(C)(O)C1CCC(Nc2ccc3ncc(-c4cccc(C(F)(F)F)c4)n3n2)CC1 (stereo not given) + CN(C)c1ccc(Nc2c3ccc(NC(=O)CCN4CCCC4)cc3nc3cc(NC(=O)CCN4CCCC4)ccc23)cc1", "1.62 µM"),
]

Asked: I would be grateful if you could share the reported IC50 for Cc1cccc(N(C)C(=O)C2C(O)CCN2c2nc(C)cc(C(F)(F)F)c2C#N)c1 (stereo not given) + CN(C)c1ccc(Nc2c3ccc(NC(=O)CCN4CCCC4)cc3nc3cc(NC(=O)CCN4CCCC4)ccc23)cc1 .
Given back: > 10 µM

Asked: I would be grateful if you could share the reported IC50 for CC(C)n1c(=O)n(C)c2cnc3cc(F)c(-c4ccc(OCCCN5CCCCC5)nc4)cc3c21 + Cc1cnc(CNC(=O)c2c(=O)c3ccc(N4CCCN(C)CC4)nc3n3c2sc2ccccc23)cn1 .
Given back: > 10 µM
